Where these numbers come from: ChEMBL document CHEMBL4725294

- MEASUREMENT DESCRIPTION: Half life in human liver microsomes at 5 uM by UPLC-MS/MS analysis
- Assay type: ADME, Microsome
QUANTITY: half-life at 5 µM (min)
Please state the figure in min; there is no need to write the unit.

Task: Name the recorded half-life at 5 µM for COc1cc2c(cc1O)CCC(C)(CC(=O)NCCCCCCCCNc1c3c(nc4cc(Cl)ccc14)CCCC3)O2 (stereo unspecified) .
Result: 12.6

---

- TARGET OR TEST SYSTEM: UniProt P22303
- MEASUREMENT DESCRIPTION: Mixed inhibition of recombinant human AChE expressed in HEK293 cells assessed as dissociation constant for enzyme-inhibitor complex using varying levels of acetylthiocholine iodide as substrate preincubated for 15 mins followed by substrate addition by Line-weaver Burk plot analysis
QUANTITY: pKi
Please note pKi is a logarithmic value: minus log10 of concentration in mol/L. Answer with that number alone.

Task: Name the recorded pKi for COc1cc2c(cc1O)CCC(C)(CCNCCCCCCCCNc1c3c(nc4cc(Cl)ccc14)CCCC3)O2 (stereo unspecified) .
Result: 9.88

---

- MEASUREMENT DESCRIPTION: Stability in mouse plasma assessed as parent compound remaining at 10 uM measured immediately by UPLC-MS/MS analysis
- Format: ADME, cell-free
- RUN PARAMETERS: read-out: Stabilty
QUANTITY: remaining at 0 min, 10 µM (%)
Please state the figure in %; there is no need to write the unit.

Task: Name the recorded remaining at 0 min, 10 µM for COc1cc2c(cc1O)CCC(C)(CC(=O)NCCCCCCCCNc1c3c(nc4cc(Cl)ccc14)CCCC3)O2 (stereo unspecified) .
Result: 100

---

- MEASUREMENT DESCRIPTION: Intrinsic clearance in human liver microsomes assessed per mg protein at 5 uM by UPLC-MS/MS analysis
- Type: ADME, Microsome
- RUN PARAMETERS: read-out: CLH
QUANTITY: microsomal CLint at 5 µM (µL/min/mg)
Please state the figure in µL/min/mg; there is no need to write the unit.

Task: Name the recorded microsomal CLint at 5 µM for COc1cc2c(cc1O)CCC(C)(CC(=O)NCCCCCCCCNc1c3c(nc4cc(Cl)ccc14)CCCC3)O2 (stereo unspecified) .
Result: 55.2

---

- TARGET OR TEST SYSTEM: Acetylcholinesterase (Homo sapiens, UniProt P22303)
- Sequence (P22303 whole entry): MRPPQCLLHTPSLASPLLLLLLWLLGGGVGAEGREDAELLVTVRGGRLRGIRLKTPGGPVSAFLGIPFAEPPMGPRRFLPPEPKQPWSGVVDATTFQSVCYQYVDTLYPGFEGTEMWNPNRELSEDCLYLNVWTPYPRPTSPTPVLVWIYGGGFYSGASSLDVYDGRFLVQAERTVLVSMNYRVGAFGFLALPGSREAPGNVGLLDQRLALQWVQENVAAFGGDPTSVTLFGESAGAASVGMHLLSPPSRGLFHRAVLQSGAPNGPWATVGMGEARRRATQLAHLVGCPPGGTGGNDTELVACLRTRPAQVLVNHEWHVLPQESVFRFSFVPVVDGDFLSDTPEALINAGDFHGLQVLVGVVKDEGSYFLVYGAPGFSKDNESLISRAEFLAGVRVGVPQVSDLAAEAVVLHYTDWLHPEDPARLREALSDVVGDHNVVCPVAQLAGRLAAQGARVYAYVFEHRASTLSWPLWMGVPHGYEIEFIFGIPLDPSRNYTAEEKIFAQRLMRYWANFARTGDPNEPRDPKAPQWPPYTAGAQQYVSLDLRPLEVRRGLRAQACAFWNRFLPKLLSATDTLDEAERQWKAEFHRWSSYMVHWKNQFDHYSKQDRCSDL
Give pIC50 for every item shown.
Please note pIC50 is a logarithmic value: minus log10 of concentration in mol/L. Answer with that number alone.

Task: Name the recorded pIC50 for COc1cc2c(cc1O)CCC(C)(CCNCCOCCOCCNc1c3c(nc4cc(Cl)ccc14)CCCC3)O2 (configuration not stated) .
Result: 8.08

Task: Check COc1cc2c(cc1O)CCC(C)(CC(=O)NCCOCCOCCNc1c3c(nc4cc(Cl)ccc14)CCCC3)O2 (configuration not stated) too.
Result: 7.32

Task: Check COc1cc2c(cc1O)CCC(C)(CC(=O)NCCCCCCCNc1c3c(nc4cc(Cl)ccc14)CCCC3)O2 (configuration not stated) too.
Result: 8.27

Task: Check COc1cc2c(cc1O)CCC(C)(CCC(=O)NCCCCCCNc1c3c(nc4cc(Cl)ccc14)CCCC3)O2 (configuration not stated) too.
Result: 8.42

Task: Check COc1cc2c(cc1OCc1ccccc1)CCC(C)(CC(=O)NCCCCCCCCNc1c3c(nc4cc(Cl)ccc14)CCCC3)O2 (configuration not stated) too.
Result: 7.98

Task: Check COc1cc2c(cc1O)CCC(C)(CCNCCCCCCCCNc1c3c(nc4cc(Cl)ccc14)CCCC3)O2 (configuration not stated) too.
Result: 9.92

Task: Check COc1cc2c(cc1OCc1ccccc1)CCC(C)(CC(=O)NCCCCCCCNc1c3c(nc4cc(Cl)ccc14)CCCC3)O2 (configuration not stated) too.
Result: 8.16

Task: Check COc1cc2c(cc1O)CCC(C)(CC(=O)NCCCCCCNc1c3c(nc4ccccc14)CCCC3)O2 (configuration not stated) too.
Result: 6.56

Task: Check COc1cc2c(cc1O)CCC(C)(CC(=O)NCCCCCCCNc1c3c(nc4ccccc14)CCCC3)O2 (configuration not stated) too.
Result: 6.95

Task: Check COc1cc2c(cc1O)CCC(C)(CCC(=O)NCCCCCCCCNc1c3c(nc4cc(Cl)ccc14)CCCC3)O2 (configuration not stated) too.
Result: 8.21

Task: Check COc1cc2c(cc1O)CCC(C)(CC(=O)NCCCCCCCCNc1c3c(nc4ccccc14)CCCC3)O2 (configuration not stated) too.
Result: 7.16

Task: Check COc1cc2c(cc1O)CCC(C)(CCNCCCCCCCCCNc1c3c(nc4cc(Cl)ccc14)CCCC3)O2 (configuration not stated) too.
Result: 9.57

Task: Check COc1cc2c(cc1O)CCC(C)(CC(=O)NCCCCCCCCCNc1c3c(nc4ccccc14)CCCC3)O2 (configuration not stated) too.
Result: 7.24

Task: Check COc1cc2c(cc1OCc1ccccc1)CCC(C)(CC(=O)NCCCCCCCCCNc1c3c(nc4cc(Cl)ccc14)CCCC3)O2 (configuration not stated) too.
Result: 8.10

Task: Check COc1cc2c(cc1O)CCC(C)(CCN)O2 (configuration not stated) too.
Result: 4.00

Task: Check COc1cc2c(cc1O)CCC(C)(CC(=O)NCCCCCCCCCNc1c3c(nc4cc(Cl)ccc14)CCCC3)O2 (configuration not stated) too.
Result: 8.69

Task: Check COc1cc2c(cc1O)CCC(C)(CCC(=O)NCCCCCCCNc1c3c(nc4cc(Cl)ccc14)CCCC3)O2 (configuration not stated) too.
Result: 8.10
